- STUDY_SYSTEM: Leucine-rich repeat serine/threonine-protein kinase 2 (Homo sapiens, UniProt Q5S007, G2019S)
- Sequence (Q5S007 whole entry G2019S): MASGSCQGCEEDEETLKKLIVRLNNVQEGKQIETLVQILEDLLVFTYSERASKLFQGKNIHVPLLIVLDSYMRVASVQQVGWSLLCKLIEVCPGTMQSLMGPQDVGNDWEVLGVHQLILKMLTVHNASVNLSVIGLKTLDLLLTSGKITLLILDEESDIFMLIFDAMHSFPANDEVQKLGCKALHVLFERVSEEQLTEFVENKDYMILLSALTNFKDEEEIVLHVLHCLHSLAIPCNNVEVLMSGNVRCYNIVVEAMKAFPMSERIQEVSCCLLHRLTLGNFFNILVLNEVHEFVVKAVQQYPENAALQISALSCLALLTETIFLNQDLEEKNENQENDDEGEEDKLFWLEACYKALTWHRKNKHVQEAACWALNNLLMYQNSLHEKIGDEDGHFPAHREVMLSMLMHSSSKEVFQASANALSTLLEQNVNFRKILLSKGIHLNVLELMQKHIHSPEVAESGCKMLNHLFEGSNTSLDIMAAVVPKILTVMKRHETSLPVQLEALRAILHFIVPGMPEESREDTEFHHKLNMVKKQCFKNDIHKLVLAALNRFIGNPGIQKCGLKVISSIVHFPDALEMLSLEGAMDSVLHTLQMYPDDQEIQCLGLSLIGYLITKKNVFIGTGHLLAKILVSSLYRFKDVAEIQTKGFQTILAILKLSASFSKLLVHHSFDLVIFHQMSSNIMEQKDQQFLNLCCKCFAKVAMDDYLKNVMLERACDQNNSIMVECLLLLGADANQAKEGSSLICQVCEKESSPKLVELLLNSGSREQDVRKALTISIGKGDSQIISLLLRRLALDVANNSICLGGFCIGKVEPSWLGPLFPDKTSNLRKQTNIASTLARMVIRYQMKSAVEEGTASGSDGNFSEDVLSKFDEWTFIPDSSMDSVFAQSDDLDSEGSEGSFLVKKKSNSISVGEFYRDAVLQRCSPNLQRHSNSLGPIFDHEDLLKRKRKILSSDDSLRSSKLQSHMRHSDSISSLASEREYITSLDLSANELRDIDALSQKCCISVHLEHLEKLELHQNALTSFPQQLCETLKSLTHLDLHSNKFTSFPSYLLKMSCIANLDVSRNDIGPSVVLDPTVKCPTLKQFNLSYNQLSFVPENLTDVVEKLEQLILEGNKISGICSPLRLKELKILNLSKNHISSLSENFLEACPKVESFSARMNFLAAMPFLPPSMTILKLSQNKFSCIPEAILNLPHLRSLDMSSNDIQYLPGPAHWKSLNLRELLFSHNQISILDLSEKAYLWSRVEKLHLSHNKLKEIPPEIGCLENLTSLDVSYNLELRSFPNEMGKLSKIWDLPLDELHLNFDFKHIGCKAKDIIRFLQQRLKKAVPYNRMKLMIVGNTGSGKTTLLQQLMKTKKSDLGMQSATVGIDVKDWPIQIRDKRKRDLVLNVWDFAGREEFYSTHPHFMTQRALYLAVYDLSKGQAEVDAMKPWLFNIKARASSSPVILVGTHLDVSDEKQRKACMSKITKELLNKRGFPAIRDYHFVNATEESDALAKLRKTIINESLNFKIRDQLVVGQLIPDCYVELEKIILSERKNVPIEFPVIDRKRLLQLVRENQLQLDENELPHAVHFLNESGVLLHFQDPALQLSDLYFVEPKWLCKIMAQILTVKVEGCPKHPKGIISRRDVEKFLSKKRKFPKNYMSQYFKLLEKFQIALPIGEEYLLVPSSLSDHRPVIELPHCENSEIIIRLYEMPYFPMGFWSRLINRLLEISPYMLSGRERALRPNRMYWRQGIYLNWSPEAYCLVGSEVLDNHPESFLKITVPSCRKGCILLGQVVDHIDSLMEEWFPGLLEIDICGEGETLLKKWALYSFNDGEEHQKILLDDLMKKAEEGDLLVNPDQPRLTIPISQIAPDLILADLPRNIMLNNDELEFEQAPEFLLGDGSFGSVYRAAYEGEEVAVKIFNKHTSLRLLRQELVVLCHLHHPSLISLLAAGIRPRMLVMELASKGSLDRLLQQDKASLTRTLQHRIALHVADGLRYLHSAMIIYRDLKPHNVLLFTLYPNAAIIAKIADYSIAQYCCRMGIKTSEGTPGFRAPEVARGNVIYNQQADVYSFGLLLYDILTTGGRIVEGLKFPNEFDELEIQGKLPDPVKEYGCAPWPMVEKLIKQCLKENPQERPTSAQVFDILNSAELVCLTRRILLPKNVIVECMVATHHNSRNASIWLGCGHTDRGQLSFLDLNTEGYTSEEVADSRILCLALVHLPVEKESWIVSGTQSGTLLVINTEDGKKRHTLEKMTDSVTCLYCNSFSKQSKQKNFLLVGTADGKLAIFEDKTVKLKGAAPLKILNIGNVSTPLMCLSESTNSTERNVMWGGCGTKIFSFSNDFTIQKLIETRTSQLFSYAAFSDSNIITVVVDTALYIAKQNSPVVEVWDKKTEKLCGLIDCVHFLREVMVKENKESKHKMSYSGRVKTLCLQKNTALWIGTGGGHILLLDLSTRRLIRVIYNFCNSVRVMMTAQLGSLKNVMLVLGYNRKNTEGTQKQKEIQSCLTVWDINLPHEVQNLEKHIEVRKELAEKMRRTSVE
- METHOD: Inhibition of LRRK2 G2019S mutant ([…]) (unknown origin) stably expressed in HEK293 cell lysate using [gamma-32P] after 15 mins by Cerenkov counting method
Kindly state IC50 for each of the entries shown.

Please look up its IC50: Cc1ccc(CNc2ccc(C(=O)N3CCC(N4CCCCC4)CC3)cc2Cl)cc1
> 1000 nM

// query IC50 value for entry CN1Cc2ccccc2N(C)c2nc(Nc3ccc(C(=O)N4CCC(N5CCCCC5)CC4)cc3Cl)ncc21
51.2 nM

I'd like to know its IC50. The compound in question is O=C(c1ccc(NCc2ccccc2)c(Cl)c1)N1CCC(N2CCCCC2)CC1
> 1000 nM

Find the recorded IC50 belonging to O=C(c1ccc(Nc2ccccc2)c(Cl)c1)N1CCC(N2CCCCC2)CC1 and report it.
> 1000 nM

Given O=C(c1ccc(Nc2cccnc2)c(Cl)c1)N1CCC(N2CCCCC2)CC1 , state its recorded IC50.
> 1000 nM

Quick check: IC50 of O=C(c1ccc(Nc2cncnc2)c(Cl)c1)N1CCC(N2CCCCC2)CC1 ?
> 1000 nM

Any idea what its IC50 is? The compound is CCCNc1ccc(C(=O)N2CCC(N3CCCCC3)CC2)cc1Cl
> 1000 nM

Query (compound): CN1C(=O)c2ccccc2N(C)c2nc(Nc3ccc(C(=O)N4CCC(N5CCCCC5)CC4)cc3Cl)ncc21 ; field requested: IC50
72 nM

Would you mind telling me what IC50 value was observed for O=C(c1ccc(NCc2ccc([N+](=O)[O-])cc2)c(Cl)c1)N1CCC(N2CCCCC2)CC1 ?
> 1000 nM

Name the recorded IC50 for Cc1ccc(Nc2ccc(C(=O)N3CCC(N4CCCCC4)CC3)cc2Cl)cc1 .
> 1000 nM

// lookup IC50 for Nc1ccc(C(=O)N2CCC(N3CCCCC3)CC2)cc1Cl
654 nM

# query: IC50 of entry COc1cc(C(=O)N2CCC(N3CCN(C)CC3)CC2)ccc1Nc1ncc2c(n1)N(C)c1ccccc1C(=O)N2C
7.9 nM

Any idea what IC50 was measured for CN1C(=O)c2ccccc2N(C)c2nc(Cl)ncc21 ?
> 1000 nM

Given the compound COc1cccc(Nc2ccc(C(=O)N3CCC(N4CCCCC4)CC3)cc2Cl)c1 , what is its reported IC50?
> 1000 nM

Fill in the blank: the reported IC50 of O=C(Nc1ccc(C(=O)N2CCC(N3CCCCC3)CC2)cc1Cl)c1ccc[nH]1 is ____.
> 1000 nM

Please report the recorded IC50 for CC(=O)Nc1ccc(Nc2ccc(C(=O)N3CCC(N4CCCCC4)CC3)cc2Cl)cc1 .
> 1000 nM

Query (compound): COc1ccccc1Nc1ccc(C(=O)N2CCC(N3CCCCC3)CC2)cc1Cl ; field requested: IC50
> 1000 nM

Entry under review: O=C(c1ccc(Nc2ncccn2)c(Cl)c1)N1CCC(N2CCCCC2)CC1 . Reported IC50?
> 1000 nM

Would you mind telling me what IC50 value was observed for O=C(c1ccc(NC2CCCCC2)c(Cl)c1)N1CCC(N2CCCCC2)CC1 ?
> 1000 nM
